Test system: Bifunctional epoxide hydrolase 2 (Mus musculus)
Experiment summary: Inhibition of C57BL/6J mouse cortex sEH using 14,15-EET as substrate preincubated for 15 mins followed by substrate addition measured after 2 hrs by UPLC-MS/MS analysis
Entries annotated with measured log10 IC50
Kindly note that the scale is log10 and the underlying IC50 is in µM.

**Query** Can you share its log10 IC50? I mean this molecule: CC1(C)[C@@H](O)CC[C@]2(C)[C@H]3C(=O)C=C4[C@H]5C[C@@](C)(CNC(=O)NCC6CCOCC6)CC[C@]5(C)CC[C@@]4(C)[C@]3(C)CC[C@@H]12
**Result** -2.28

**Query** Can you share its log10 IC50? I mean this molecule: CC1(C)[C@@H](O)CC[C@]2(C)[C@H]3C(=O)C=C4[C@H]5C[C@@](C)(CNC(=O)NCc6ccc(S(C)(=O)=O)cc6)CC[C@]5(C)CC[C@@]4(C)[C@]3(C)CC[C@@H]12
**Result** -2.01

----------
Test system: Bifunctional epoxide hydrolase 2 (Mus musculus)
Sequence (P34914 whole entry): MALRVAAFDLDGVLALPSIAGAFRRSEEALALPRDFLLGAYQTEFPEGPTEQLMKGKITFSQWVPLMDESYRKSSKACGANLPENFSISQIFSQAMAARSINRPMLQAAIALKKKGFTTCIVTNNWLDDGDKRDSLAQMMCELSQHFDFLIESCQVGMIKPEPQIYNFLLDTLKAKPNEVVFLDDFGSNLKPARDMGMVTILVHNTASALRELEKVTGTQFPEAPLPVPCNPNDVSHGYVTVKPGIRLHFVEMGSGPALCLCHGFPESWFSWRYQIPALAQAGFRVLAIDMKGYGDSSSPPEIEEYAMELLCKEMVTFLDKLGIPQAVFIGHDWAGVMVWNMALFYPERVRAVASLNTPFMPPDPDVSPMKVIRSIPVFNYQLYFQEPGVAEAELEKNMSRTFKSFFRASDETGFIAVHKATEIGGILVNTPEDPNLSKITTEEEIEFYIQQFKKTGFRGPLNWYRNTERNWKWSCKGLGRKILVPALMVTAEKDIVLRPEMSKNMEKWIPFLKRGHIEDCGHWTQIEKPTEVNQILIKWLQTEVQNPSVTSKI
Experiment summary: Inhibition of C57BL/6J mouse cortex sEH using 14,15-EET as substrate preincubated for 15 mins followed by substrate addition measured after 2 hrs by UPLC-MS/MS analysis
# strict inequality: IC50 < 0.4 µM yields True, everything else yields False

Smiles code: CCC(=O)N1CCC(CNC(=O)NC[C@@]2(C)CC[C@]3(C)CC[C@]4(C)C(=CC(=O)[C@@H]5[C@@]6(C)CC[C@H](O)C(C)(C)[C@@H]6CC[C@]54C)[C@H]3C2)CC1
Test system: Bifunctional epoxide hydrolase 2 (Mus musculus)
Assigned label: True
--
Smiles code: CC1(C)[C@@H](O)CC[C@]2(C)[C@H]3C(=O)C=C4[C@H]5C[C@@](C)(CNC(=O)NCc6ccc(S(N)(=O)=O)cc6)CC[C@]5(C)CC[C@@]4(C)[C@]3(C)CC[C@@H]12
Test system: Bifunctional epoxide hydrolase 2 (Mus musculus)
Assigned label: True
--
Smiles code: CC1(C)[C@@H](O[C@H]2O[C@H](CO)[C@@H](O)[C@H](O)[C@H]2O)CC[C@]2(C)[C@H]3C(=O)C=C4[C@H]5C[C@@](C)(CNC(=O)NCc6ccc(OC(F)(F)F)cc6)CC[C@]5(C)CC[C@@]4(C)[C@]3(C)CC[C@@H]12
Test system: Bifunctional epoxide hydrolase 2 (Mus musculus)
Assigned label: False
--
Smiles code: CC1(C)[C@@H](O[C@@H]2OC[C@@H](O)[C@H](O)[C@H]2O)CC[C@]2(C)[C@H]3C(=O)C=C4[C@H]5C[C@@](C)(CNC(=O)NCC6CCOCC6)CC[C@]5(C)CC[C@@]4(C)[C@]3(C)CC[C@@H]12
Test system: Bifunctional epoxide hydrolase 2 (Mus musculus)
Assigned label: False

**Query** Does this compound meet the criterion IC50 < 0.4 µM? CC1(C)[C@@H](O[C@H]2OC[C@@H](O)[C@@H](O)[C@@H]2O)CC[C@]2(C)[C@H]3C(=O)C=C4[C@H]5C[C@@](C)(CNC(=O)NCC6CCOCC6)CC[C@]5(C)CC[C@@]4(C)[C@]3(C)CC[C@@H]12
**Result** True
